Target: AKT (Homo sapiens)
Experiment: RBC HotSpot kinase assay (33P-ATP, P81 filter-binding), AKT
Assay type: biochemical
Details: Table 28, biochemical kinase assay; read-out: AKT IC50
assayReadout: IC50

molecule	studySystem	IC50
NC(=O)c1ccc(-c2ccnc3[nH]ccc23)cc1 [Compound 264]	AKT (Homo sapiens)	> 10 µM

Exam item: Print AKT (Homo sapiens) IC50 for Cc1cc2c(-c3ccc(CN)cc3)ccnc2[nH]1 [Compound 251] .
Marked response: > 10 µM

Exam item: Print AKT (Homo sapiens) IC50 for C[C@@H]1CN(C(=O)C2CC(C)(C)C2)C[C@H](C)C1(O)c1c(F)cc(-c2ccnc3[nH]cc(F)c23)cc1F (stereo partly drawn) [Compound 72] .
Marked response: > 10 µM

---

// IC50 lookup, one value per entry
Molecular target: AKT (Homo sapiens, UniProt P31749)
Sequence (P31749 whole entry): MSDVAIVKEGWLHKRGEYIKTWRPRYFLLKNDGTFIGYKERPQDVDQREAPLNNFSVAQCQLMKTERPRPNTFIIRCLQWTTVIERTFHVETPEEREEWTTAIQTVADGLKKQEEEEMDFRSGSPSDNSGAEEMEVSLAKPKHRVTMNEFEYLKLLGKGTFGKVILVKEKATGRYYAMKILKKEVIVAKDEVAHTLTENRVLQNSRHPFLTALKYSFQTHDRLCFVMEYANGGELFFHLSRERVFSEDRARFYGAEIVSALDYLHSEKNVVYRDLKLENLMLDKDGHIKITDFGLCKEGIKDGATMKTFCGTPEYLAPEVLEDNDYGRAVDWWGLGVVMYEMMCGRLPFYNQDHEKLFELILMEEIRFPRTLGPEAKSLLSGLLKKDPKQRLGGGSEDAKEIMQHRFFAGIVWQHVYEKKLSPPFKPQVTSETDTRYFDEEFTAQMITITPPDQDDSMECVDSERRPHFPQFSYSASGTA
Assay: RBC HotSpot kinase assay (33P-ATP, P81 filter-binding), AKT
Assay type: biochemical
Settings: Table 28, biochemical kinase assay; read-out: AKT IC50
Report only the number, with the unit nM understood.

molecule	resultUnit	IC50
CCOc1cc(-c2ccnc3[nH]ccc23)ccc1CN	nM	789
Cc1nnc(C2(c3ccc(-c4ccnc5[nH]cc(F)c45)cc3)CCNCC2)o1	nM	18
C=C(C)c1cc(-c2ccnc3[nH]ccc23)ccc1CN	nM	178
Cc1cc(-c2ccnc3[nH]cc(Cl)c23)cc(F)c1[C@@]1(O)[C@H](C)CN(C(=O)CN)C[C@@H]1C	nM	186
CN[C@H](C)C(=O)N1C[C@@H](C)[C@](O)(c2c(C)cc(-c3ccnc4[nH]cc(F)c34)cc2F)[C@@H](C)C1	nM	1370

Exam item: Give IC50 for C[C@@H]1CN(Cc2ccncc2)C[C@H](C)[C@@]1(O)c1c(F)cc(-c2ccnc3[nH]cc(F)c23)cc1F
Marked response: 1020

Exam item: Give IC50 for COC(=O)c1c[nH]c2nccc(-c3ccc(CN)cc3)c12
Marked response: 13

Exam item: Give IC50 for CN1CCC(O)(c2ccc(-c3ccnc4[nH]ccc34)cc2)CC1
Marked response: 490

Exam item: Give IC50 for CC(C)c1cc(-c2ccnc3[nH]ccc23)ccc1CN
Marked response: 281

Exam item: Give IC50 for CC1CNCCC1c1ccc(-c2ccnc3[nH]ccc23)cc1 (centres unmarked)
Marked response: 2110

---

Molecular target: LATS1 (Homo sapiens, UniProt O95835)
Sequence (O95835 whole entry): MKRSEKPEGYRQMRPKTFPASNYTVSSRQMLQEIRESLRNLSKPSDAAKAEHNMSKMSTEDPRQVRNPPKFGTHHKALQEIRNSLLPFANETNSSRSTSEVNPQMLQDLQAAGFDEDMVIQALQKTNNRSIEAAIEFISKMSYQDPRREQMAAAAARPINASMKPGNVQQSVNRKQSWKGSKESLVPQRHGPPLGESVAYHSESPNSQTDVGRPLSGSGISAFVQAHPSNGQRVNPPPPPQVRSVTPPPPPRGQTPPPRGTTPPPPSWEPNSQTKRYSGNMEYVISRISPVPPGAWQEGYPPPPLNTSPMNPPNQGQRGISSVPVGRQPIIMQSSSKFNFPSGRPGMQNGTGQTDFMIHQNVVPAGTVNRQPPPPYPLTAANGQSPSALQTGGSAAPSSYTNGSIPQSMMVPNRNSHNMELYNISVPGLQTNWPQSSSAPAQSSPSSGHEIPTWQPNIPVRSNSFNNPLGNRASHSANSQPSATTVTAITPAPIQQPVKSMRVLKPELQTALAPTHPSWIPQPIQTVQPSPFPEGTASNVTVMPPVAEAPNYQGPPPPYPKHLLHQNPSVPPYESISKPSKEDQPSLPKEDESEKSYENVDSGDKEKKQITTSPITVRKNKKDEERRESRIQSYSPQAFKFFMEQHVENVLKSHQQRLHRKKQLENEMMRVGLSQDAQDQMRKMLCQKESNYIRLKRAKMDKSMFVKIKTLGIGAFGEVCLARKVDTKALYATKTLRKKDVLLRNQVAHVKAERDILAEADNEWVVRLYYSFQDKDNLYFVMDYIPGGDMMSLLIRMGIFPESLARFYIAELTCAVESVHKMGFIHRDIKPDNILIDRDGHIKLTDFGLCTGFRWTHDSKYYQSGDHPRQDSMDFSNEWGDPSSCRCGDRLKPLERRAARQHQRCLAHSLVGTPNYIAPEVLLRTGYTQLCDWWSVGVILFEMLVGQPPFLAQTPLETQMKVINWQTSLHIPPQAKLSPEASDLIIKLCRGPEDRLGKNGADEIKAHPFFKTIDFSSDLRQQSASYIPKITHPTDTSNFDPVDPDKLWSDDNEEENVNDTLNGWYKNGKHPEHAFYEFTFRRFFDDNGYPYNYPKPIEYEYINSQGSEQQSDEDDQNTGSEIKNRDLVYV
Experiment: RBC HotSpot kinase assay (33P-ATP, P81 filter-binding), LATS1
Type: biochemical
Conditions: Table 28, biochemical kinase assay; read-out: LATS1 IC50
assayReadout: IC50 (nM)
Report only the number, with the unit nM understood.

molecule	studySystem	IC50 / nM
NCc1ccc(-c2cc(-c3ccncc3)nc3[nH]ccc23)cc1	LATS1 (Homo sapiens, UniProt O95835)	34
CC1CN(C)CC(C)C1(O)c1ccc(-c2ccnc3[nH]cc(F)c23)cc1-c1ccccc1 (stereo not drawn)	LATS1 (Homo sapiens, UniProt O95835)	157
C[C@@H]1CNC[C@H](C)[C@@]1(O)c1ccc(-c2ccnc3[nH]cc(F)c23)cc1OC(F)(F)F	LATS1 (Homo sapiens, UniProt O95835)	5.4
COc1ccccc1-c1c[nH]c2nccc(-c3ccc(CN)cc3)c12	LATS1 (Homo sapiens, UniProt O95835)	11
CC1CC(O)(c2ccc(-c3ccnc4[nH]cc(F)c34)cc2Cl)CC(C)N1 (stereo not drawn)	LATS1 (Homo sapiens, UniProt O95835)	230

Exam item: Give IC50 for Cc1cc(-c2ccnc3[nH]cc(F)c23)cc(F)c1C1(O)[C@H](C)CN(C2COC2)C[C@@H]1C (stereo partly drawn)
Marked response: 5.9

Exam item: Give IC50 for CC(=O)N1CCC(c2ccc(-c3ccnc4[nH]cc(F)c34)cc2Cl)CC1
Marked response: 69

Exam item: Give IC50 for Cc1cc(-c2ccnc3[nH]cc(F)c23)cc(F)c1[C@@]1(O)[C@H](C)CN(C)C[C@@H]1C
Marked response: 5.1

Exam item: Give IC50 for Cc1cc(-c2ccnc3[nH]cc(C)c23)cc(F)c1[C@@]1(O)[C@H](C)CN(C(=O)CN)C[C@@H]1C
Marked response: 1.6

Exam item: Give IC50 for Cc1nc(-c2ccnc3[nH]cc(F)c23)ccc1C1(O)CC2(CNC2)C1
Marked response: 473

Exam item: Give IC50 for Cc1cc(-c2ccnc3[nH]ccc23)cnc1CN
Marked response: 8.2
